The origin of these recorded values is patent US11566007B2.

# SUBJECT OF TEST: NRAS WT (Homo sapiens (Human), UniProt P01111+P62937)
# Sequence (P01111 whole entry, one chain of several): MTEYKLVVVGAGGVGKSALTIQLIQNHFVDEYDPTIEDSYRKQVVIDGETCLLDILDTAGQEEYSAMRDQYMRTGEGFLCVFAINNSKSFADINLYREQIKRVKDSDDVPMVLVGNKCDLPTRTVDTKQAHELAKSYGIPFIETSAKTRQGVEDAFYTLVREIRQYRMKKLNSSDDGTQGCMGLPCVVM
# ASSAY PROCEDURE: Ras-Raf (BRAF RBD) disruption / FRET / MOA assay, NRAS WT
# Format: biochemical
# CONDITION CONTEXT: read-out: IC50* NRAS WT FRET data
Each entry below lists one item and its recorded IC50 value.

{"MOLECULE": "C=CC(=O)N1CC[C@H](C(=O)N(C)[C@H](C(=O)N[C@H]2CC3=NN=C(S3)c3ccc4c(c3)c(c(-c3cccnc3[C@H](C)OC)n4CC)CC(C)(C)COC(=O)[C@@H]3CCCN(N3)C2=O)C(C)C)C1 (atropisomer, axis not shown)", "ASSAY ENDPOINT": "IC50", "VALUE": "> 10000 nM"}
{"MOLECULE": "C=CC(=O)N(C)C[C@H]1CCN1C(=O)N(C)[C@H](C(=O)N[C@H]1Cc2nc(cs2)-c2ccc3c(c2)c(c(-c2cccnc2[C@H](C)OC)n3CC)CC(C)(C)COC(=O)[C@@H]2CCCN(N2)C1=O)C(C)C (atropisomer, axis not shown)", "ASSAY ENDPOINT": "IC50", "VALUE": "100 to 1000 nM"}
{"MOLECULE": "C=CC(=O)N(C)CC1CN(C(=O)N(C)[C@H](C(=O)N[C@H]2Cc3nc(cs3)-c3ccc4c(c3)c(c(-c3cccnc3[C@H](C)OC)n4CC)CC(C)(C)COC(=O)[C@@H]3CCCN(N3)C2=O)C(C)C)C1 (atropisomer, axis not shown)", "ASSAY ENDPOINT": "IC50", "VALUE": "10 to 100 nM"}

Shift focus to the following entry.
# input molecule: C=CC(=O)N1C[C@@H](C)[C@H](N(C)C(=O)N(C)[C@H](C(=O)N[C@H]2Cc3nc(cs3)-c3ccc4c(c3)c(c(-c3cccnc3[C@H](C)OC)n4CC)CC(C)(C)COC(=O)[C@@H]3CCCN(N3)C2=O)C(C)C)C1 (atropisomer, axis not shown) ; wanted: its IC50
1000 to 10000 nM

====

# SUBJECT OF TEST: K-Ras G13C (Homo sapiens (Human), UniProt P01116+P62937, G13C)
# Sequence (P01116-2 other isoform, or with tags, fused parts or gaps G13C, one chain of several): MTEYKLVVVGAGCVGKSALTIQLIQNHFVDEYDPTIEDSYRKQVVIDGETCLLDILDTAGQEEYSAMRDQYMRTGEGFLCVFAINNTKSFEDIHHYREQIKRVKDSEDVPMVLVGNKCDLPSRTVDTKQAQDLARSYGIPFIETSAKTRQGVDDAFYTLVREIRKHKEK
# ASSAY PROCEDURE: Ras-Raf (BRAF RBD) disruption / FRET / MOA assay, KRAS G13C
# Assay type: biochemical
# CONDITION CONTEXT: KRAS G13C; Ras-Raf disruption/FRET/MOA assay; read-out: IC50* KRAS G13C FRET data
ASSAY ENDPOINT: IC50

{"COMPOUND": "CO[C@@H](C)c1ncccc1-c1c2c3cc(ccc3n1CC(F)(F)F)-c1csc(n1)C[C@H](NC(=O)CCOC1CN(C(=O)C#CC(C)(C)N(C)C)C1)C(=O)N1CCC[C@H](N1)C(=O)OCC(C)(C)C2 (atropisomer, axis not shown)", "SUBJECT OF TEST": "K-Ras G13C (Homo sapiens (Human), UniProt P01116+P62937, G13C)", "ASSAY ENDPOINT": "IC50", "VALUE": "100 to 1000 nM"}

Reported IC50 for K-Ras G13C (Homo sapiens (Human), UniProt P01116+P62937, G13C), given CC#CC(=O)N1CC(N(C)C(=O)N(C)[C@H](C(=O)N[C@H]2Cc3nc(cs3)-c3ccc4c(c3)c(c(-c3cccnc3[C@H](C)OC)n4CC)CC(C)(C)COC(=O)[C@@H]3CCCN(N3)C2=O)C(C)C)C1 (atropisomer, axis not shown) ?
100 to 1000 nM

====

# SUBJECT OF TEST: KRAS G13D (Homo sapiens (Human), UniProt P01116+P62937, G13D)
# Sequence (P01116-2 other isoform, or with tags, fused parts or gaps G13D): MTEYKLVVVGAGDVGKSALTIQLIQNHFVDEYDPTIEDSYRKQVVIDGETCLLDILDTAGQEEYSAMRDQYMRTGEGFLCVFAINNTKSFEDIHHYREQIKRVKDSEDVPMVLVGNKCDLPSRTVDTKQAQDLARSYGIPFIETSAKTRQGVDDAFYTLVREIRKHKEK
# Sequence (P62937 whole entry): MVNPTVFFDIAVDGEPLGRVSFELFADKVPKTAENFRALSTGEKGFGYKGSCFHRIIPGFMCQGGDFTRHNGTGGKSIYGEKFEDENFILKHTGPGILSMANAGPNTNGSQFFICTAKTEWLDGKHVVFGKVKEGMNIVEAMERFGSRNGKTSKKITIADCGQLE
# ASSAY PROCEDURE: Ras-Raf (BRAF RBD) disruption / FRET / MOA assay, KRAS G13D
# Type: biochemical
# CONDITION CONTEXT: read-out: IC50* KRAS G13D FRET data
Each entry below lists one item and its recorded IC50 value.

{"COMPOUND": "C=CC(=O)N1CC[C@H](C(=O)N(C)[C@H](C(=O)N[C@H]2Cc3nc(ns3)-c3ccc4c(c3)c(c(-c3cccnc3[C@H](C)OC)n4CC)CC(C)(C)COC(=O)[C@@H]3CCCN(N3)C2=O)C(C)C)C1 (atropisomer, axis not shown)", "IC50": "> 10000 nM"}
{"COMPOUND": "CCn1c(-c2cnccc2COC)c2c3cc(ccc31)-c1cc(O)cc(c1)C[C@H](NC(=O)[C@H](C(C)C)N(C)C(=O)[C@H]1CCN(C(=O)C(C)(C)N(C)C)C1)C(=O)N1CCC[C@H](N1)C(=O)OCC(C)(C)C2", "IC50": "100 to 1000 nM"}
{"COMPOUND": "C=CC(=O)N1CC[C@H](N(C)C(=O)N(C)[C@H](C(=O)N[C@H]2Cc3nc(cs3)-c3ccc4c(c3)c(c(-c3cccnc3[C@H](C)OC)n4CC)CC(C)(C)COC(=O)[C@@H]3CCCN(N3)C2=O)C(C)C)C1 (atropisomer, axis not shown)", "IC50": "1000 to 10000 nM"}

Shift focus to the following entry.
# input compound: C=CC(=O)N(C)C1CN(C(=O)N(C)[C@H](C(=O)N[C@H]2Cc3nc(cs3)-c3ccc4c(c3)c(c(-c3cccnc3[C@H](C)OC)n4CC)CC(C)(C)COC(=O)[C@@H]3CCCN(N3)C2=O)C(C)C)C1 (atropisomer, axis not shown) ; wanted: its IC50
100 to 1000 nM

====

# SUBJECT OF TEST: NRAS G12C (Homo sapiens (Human), UniProt P01111+P62937, G12C)
# Sequence (P01111 whole entry G12C, one chain of several): as the sequence (P01111 whole entry, one chain of several) above, with G12C counted along it
# ASSAY PROCEDURE: Ras-Raf (BRAF RBD) disruption / FRET / MOA assay, NRAS G12C
# Type: biochemical
# CONDITION CONTEXT: read-out: IC50* NRAS G12C FRET data
ASSAY ENDPOINT: IC50

# annotated cases, reported IC50 shown
{"COMPOUND": "C=CC(=O)N(C)C1CCN(C(=O)N(C)[C@H](C(=O)N[C@H]2Cc3nc(cs3)-c3ccc4c(c3)c(c(-c3cccnc3[C@H](C)OC)n4CC)CC(C)(C)COC(=O)[C@@H]3CCCN(N3)C2=O)C(C)C)CC1 (atropisomer, axis not shown)", "IC50": "10 to 100 nM"}
{"COMPOUND": "CCn1c(-c2cccnc2[C@H](C)OC)c2c3cc(ccc31)-c1cnc(o1)C[C@H](NC(=O)[C@@H](COC1CN(C(=O)C#CC(C)(C)N(C)C)C1)C(C)C)C(=O)N1CCC[C@H](N1)C(=O)OCC(C)(C)C2 (atropisomer, axis not shown)", "IC50": "10 to 100 nM"}
{"COMPOUND": "CCn1c(-c2cnccc2C(C)C)c2c3cc(ccc31)-c1cc(O)cc(c1)C[C@H](NC(=O)[C@H](C(C)C)N(C)C(=O)[C@H]1CCN(C(=O)C#CCN(C)C)C1)C(=O)N1CCC[C@H](N1)C(=O)OCC(C)(C)C2", "IC50": "< 10 nM"}
{"COMPOUND": "C=CC(=O)N1CC[C@H](C(=O)N(C)[C@H](C(=O)N[C@H]2Cc3cccc(c3)-c3ccc4c(c3)c(c(-c3cc5c(nc3[C@H](C)OC)CCN(C)C5)n4CC)CC(C)(C)COC(=O)[C@@H]3CCCN(N3)C2=O)C(C)C)C1 (atropisomer, axis not shown)", "IC50": "100 to 1000 nM"}

# input compound: C=CC(=O)N1CCO[C@H]2CN(C(=O)N(C)[C@H](C(=O)N[C@H]3C[C@H]4CN(CCO4)c4ccc5c(c4)c(c(-c4cccnc4[C@H](C)OC)n5CC)CC(C)(C)COC(=O)[C@@H]4CCCN(N4)C3=O)C(C)C)C[C@H]21 ; wanted: its IC50
100 to 1000 nM

====

# SUBJECT OF TEST: KRAS G12V (Homo sapiens (Human), UniProt P01116+P62937, G12V)
# Sequence (P01116-2 other isoform, or with tags, fused parts or gaps G12V, one chain of several): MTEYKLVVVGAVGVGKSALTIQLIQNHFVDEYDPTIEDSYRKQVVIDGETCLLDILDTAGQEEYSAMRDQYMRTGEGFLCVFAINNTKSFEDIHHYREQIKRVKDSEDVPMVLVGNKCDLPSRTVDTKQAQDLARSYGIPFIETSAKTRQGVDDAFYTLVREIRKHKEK
# ASSAY PROCEDURE: Ras-Raf (BRAF RBD) disruption / FRET / MOA assay, KRAS G12V
# Type: biochemical
# CONDITION CONTEXT: read-out: IC50* KRAS G12V FRET data
pIC50: −log10 of the molar value.
Each entry below lists one item and its recorded pIC50 value.

{"MOLECULE": "C=CC(=O)N1CC[C@H](C(=O)N(C)[C@H](C(=O)N[C@H]2Cc3cccc(c3)-c3ccc4c(c3)c(c(-c3cc(C5=CCN(C)CC5)cnc3[C@H](C)OC)n4CC)CC(C)(C)COC(=O)[C@@H]3CCCN(N3)C2=O)C(C)C)C1 (atropisomer, axis not shown) [Example A513]", "pIC50": "5.00 to 6.00"}

Shift focus to the following entry.
Reported pIC50 for KRAS G12V (Homo sapiens (Human), UniProt P01116+P62937, G12V), given CC#CC(=O)N1C[C@H](C)[C@H](C(=O)N(C)[C@H](C(=O)N[C@H]2Cc3cccc(c3)-c3ccc4c(c3)c(c(-c3cccnc3[C@H](C)OC)n4CC)CC(C)(C)COC(=O)[C@@H]3CCCN(N3)C2=O)C(C)C)C1 (atropisomer, axis not shown) ?
5.00 to 6.00
